target: TDP-43 (Homo sapiens, UniProt Q13148 1-414); test: RNA Bind-n-Seq with designed 260-mer pool; 25 mM Tris-HCl, 150 mM KCl, 3 mM MgCl2, BSA (printed 500 mg/mL), 20 units/mL SUPERase IN; pH not stated; 500 nM RNA pool, 1 h, 4 C; TDP-43 5, 50, 500 nM; high values mean tight binding; settings: protein: recombinant; tags: SBP (GST cleaved off with PreScission; pGEX-GST-SBP)
Sequence (Q13148 whole entry): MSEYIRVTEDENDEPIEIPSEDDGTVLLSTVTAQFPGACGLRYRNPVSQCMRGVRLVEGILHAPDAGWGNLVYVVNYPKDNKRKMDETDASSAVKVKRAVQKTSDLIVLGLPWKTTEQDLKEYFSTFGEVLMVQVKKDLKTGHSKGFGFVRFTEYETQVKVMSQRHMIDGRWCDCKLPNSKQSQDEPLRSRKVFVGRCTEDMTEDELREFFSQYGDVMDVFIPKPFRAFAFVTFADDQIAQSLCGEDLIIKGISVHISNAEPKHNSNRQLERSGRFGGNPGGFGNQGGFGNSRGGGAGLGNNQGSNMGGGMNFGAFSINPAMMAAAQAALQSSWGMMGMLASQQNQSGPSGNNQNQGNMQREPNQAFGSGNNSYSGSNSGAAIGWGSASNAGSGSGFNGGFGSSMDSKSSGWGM
Whole data set: some 9,900 sequences, median “r (bound/input frequency ratio)” near 0.7, cut for the highest 2% near 6.5. The sample holds the highest values, similar sequences and a random draw of the others, so the mix is not that of the screen.
property.label: binding signal

{"binder": "ENSMUSG00000043670.205|Diras1 (ssRNA) RNA: GGGAGUUCUACAGUCCGACGAUCGCUUCGAUAUCCGCAUGCUACACCCAGAUGAGGGUGACUUAGAAUUCUGUGUUUAUGUGCCUGUGUGUGUGGAUGGGUGUGUGUCUGUCUUGGGAUGGGGUGUUCUUGCACCACUUUGUGUUCUUAGUGAGACCACAGUGUAAGUGGCCGUGUGUGUGUGUGGGGGGGGGCACCUAGACAUUGUGGUGUGUCUGUAUGGCUCUGUGUUUUCAGGGGUGGGUGACACAGGCCUGUCUGAUGAGCACCAGGUCUGUUCCAGGCUGUGGCAAGCUGGCUCCUGCUCUUGCGGUCGCACUAGUGUGGAAUUCUCGGGUGUCAAGG", "binding signal": "7.36 R (bound/input frequency ratio)"}
{"binder": "ENSMUSG00000022095.199|Fam160b2 (ssRNA) RNA: GGGAGUUCUACAGUCCGACGAUCGCUUCGAUAUCCGCAUGCUACCCAUGCCACCUCUCGAAGCCGGGCACAGGUUGCCAGGAGGUGACAUGAAAGAGGAGGAAACUCCAUGACCUCUACAUCCCCCGCAGUCCUCCCAGCGGGGGAGGACUUCUCUGCUGCUCCGAAGAACAUCAUGCACUCCUGUGUGUGUGUGUGAGUGUGUGUGUGUGUGUGUGUGUGUGUGUGUGUGUAUGUGUGUGUAUAUGUGUGUGUGUGUGUGUAUGUGUGUGUGUGUGUGUGAGUGAGUGUGUGUGUGUGUGUGCUCUUGCGGUCGCACUAGUGUGGAAUUCUCGGGUGUCAAGG", "binding signal": "8.67 R (bound/input frequency ratio)"}
{"binder": "ENSMUSG00000042529.46|Kcnj12|142:149 (ssRNA) RNA: GGGAGUUCUACAGUCCGACGAUCGCUUCGAUAUCCGCAUGCUAGGCCAAAAUGACUGGCUCACGGCCUCGGAGGCUGAUGUAUACCCAUGGGCAAGGAGGUGACUUCUUGGGGUAGGGUUGCUCAGGAGUUAGGGACUCUGCUGGAGGCCUUAGGUGCAGGUCCCAGCCCCGGUGGGAGGAGGCACACAUACUACACUUCAUUGGUUUUUAACUUGGGCAAGACUGUUUACAAACAAAAACAAACAAACAAACAAUCAAAAAAAAAACCCACCCCACAAAACACAAGAAAACAUUAACAGGUGCUCUUGCGGUCGCACUAGUGUGGAAUUCUCGGGUGUCAAGG", "binding signal": "0.514 R (bound/input frequency ratio)"}
{"binder": "ENSMUSG00000022095.200|Fam160b2 (ssRNA) RNA: GGGAGUUCUACAGUCCGACGAUCGCUUCGAUAUCCGCAUGCUACCACCUCUCGAAGCCGGGCACAGGUUGCCAGGAGGUGACAUGAAAGAGGAGGAAACUCCAUGACCUCUACAUCCCCCGCAGUCCUCCCAGCGGGGGAGGACUUCUCUGCUGCUCCGAAGAACAUCAUGCACUCCUGUGUGUGUGUGUGAGUGUGUGUGUGUGUGUGUGUGUGUGUGUGUGUGUAUGUGUGUGUAUAUGUGUGUGUGUGUGUGUAUGUGUGUGUGUGUGUGUGAGUGAGUGUGUGUGUGUGUGUGUGUGUGCUCUUGCGGUCGCACUAGUGUGGAAUUCUCGGGUGUCAAGG", "binding signal": "7.08 R (bound/input frequency ratio)"}

Problem: What value of measured binding signal is listed for ENSMUSG00000031028.31|Tub|122:126 (ssRNA) RNA: GGGAGUUCUACAGUCCGACGAUCGCUUCGAUAUCCGCAUGCUACUGCCUGCCAAGACAGCCCUGCCUACCCUCUGUUCAUAGGCCCUCUAUGGGCUUUCUGGCCUUACCAACCAGAGACUGGCUGCUCUGCCUCUGCUGCUGAAGCAGGGGGGACAGCAAAUGGCAUACACAGGAGAAGAAUAUUUCUGUGCCCCAAGGUCAACACACAUGCCCAGUCCUGGGUCAGUCCCCUGCUGCAGUGGUGUUAUCACACCGGAAAGCCUCUUCACCUGGAGGUACAGAGGGAGAGGAAGCACAAGCCUCUCUUGCGGUCGCACUAGUGUGGAAUUCUCGGGUGUCAAGG ?
Solution: 0.475 R (bound/input frequency ratio)

Problem: Here is the next binder: ENSMUSG00000061578.830|Ksr2|59:63;101:105;176:180 (ssRNA) RNA: GGGAGUUCUACAGUCCGACGAUCGCUUCGAUAUCCGCAUGCUAAUAGAAACAGCAUUCUGGCUCACAGUUUCAAAGGGCUCAGUCCAUAGCUGCCUGACUCACACAUUCUAGGCCUUUCUUGAGGCAAGUGUUCAUCAUGAUACACACAGGGUGAGGAGGAGUUUCUUCAUGGCAAACAGGAAGCAAAGAGCAAUACAGGAAAAGGUCAGGGGUGAGAACACACAUUGCCACUUCCUCCAGCUAGGACCUUUGAGCAUCACAUUGUGAAGCCAUCCAGGGACUUGGGGGUUAGGUCAGAGGUACUCUUGCGGUCGCACUAGUGUGGAAUUCUCGGGUGUCAAGG
Solution: 0.325 R (bound/input frequency ratio)

Problem: Here is the next binder: ENSMUSG00000058297.101|Spock2|105:110 (ssRNA) RNA: GGGAGUUCUACAGUCCGACGAUCGCUUCGAUAUCCGCAUGCUAAUUUGAUAUGAAAGCCCCACCACGGUCUUGUGGUGAUGAGGCAGGACCUGUACACACAGCAAGGCUUACUAUCCGUCUCCUGACAUCCGAAGAGCUCGUCGCAGCACACACUAAUGGCCCUUGGGCUGCACGUGGUUAAGCAUAGCUGUCUCUGUGGCCCAACACAAAGAGGUAAACUUACUUAAAACACAGGGGUUUUGUUGCUGUUUGUUUUUUGUUAGUUUGUUUGUUGAUAAUUGGAUUGAGGAGUUAAUCCUCUGCUCUUGCGGUCGCACUAGUGUGGAAUUCUCGGGUGUCAAGG
Solution: 1.12 R (bound/input frequency ratio)
